Target: Voltage-gated inwardly rectifying potassium channel KCNH2 (Homo sapiens, UniProt Q12809)
Sequence (Q12809 whole entry): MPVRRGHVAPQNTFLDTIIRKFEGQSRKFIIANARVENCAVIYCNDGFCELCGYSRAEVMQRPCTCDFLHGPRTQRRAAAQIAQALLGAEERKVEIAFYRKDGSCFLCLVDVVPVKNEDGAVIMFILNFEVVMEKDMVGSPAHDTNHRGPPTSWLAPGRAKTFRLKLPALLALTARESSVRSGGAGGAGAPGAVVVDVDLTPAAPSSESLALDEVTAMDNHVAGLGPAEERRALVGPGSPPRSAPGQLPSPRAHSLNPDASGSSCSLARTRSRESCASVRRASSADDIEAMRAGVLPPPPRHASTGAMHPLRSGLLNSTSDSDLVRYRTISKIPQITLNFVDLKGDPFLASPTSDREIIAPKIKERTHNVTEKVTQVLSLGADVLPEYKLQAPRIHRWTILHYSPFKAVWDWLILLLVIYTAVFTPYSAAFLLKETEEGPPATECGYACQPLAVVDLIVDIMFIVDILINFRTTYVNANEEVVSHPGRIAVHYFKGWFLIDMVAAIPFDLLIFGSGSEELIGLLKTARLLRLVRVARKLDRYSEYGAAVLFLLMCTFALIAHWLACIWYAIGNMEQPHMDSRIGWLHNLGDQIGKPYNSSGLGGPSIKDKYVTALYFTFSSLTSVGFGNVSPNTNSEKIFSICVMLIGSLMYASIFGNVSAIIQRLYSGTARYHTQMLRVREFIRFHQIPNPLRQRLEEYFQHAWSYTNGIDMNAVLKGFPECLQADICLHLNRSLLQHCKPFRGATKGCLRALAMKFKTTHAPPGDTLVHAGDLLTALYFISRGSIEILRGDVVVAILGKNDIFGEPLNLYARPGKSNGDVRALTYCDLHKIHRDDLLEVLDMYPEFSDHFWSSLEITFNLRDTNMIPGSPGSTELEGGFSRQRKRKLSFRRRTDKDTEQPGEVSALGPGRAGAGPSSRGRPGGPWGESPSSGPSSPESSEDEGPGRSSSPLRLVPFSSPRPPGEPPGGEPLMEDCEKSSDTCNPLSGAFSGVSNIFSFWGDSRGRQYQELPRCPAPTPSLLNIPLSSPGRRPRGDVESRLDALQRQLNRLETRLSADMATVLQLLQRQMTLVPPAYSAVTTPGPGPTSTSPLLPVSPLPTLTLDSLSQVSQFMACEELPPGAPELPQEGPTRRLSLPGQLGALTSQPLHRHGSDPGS
Assay: Inhibition of human ERG by patch clamp assay
READOUT_TYPE: pIC50
Give only the number. pIC50 is defined as minus log10 of concentration in molar units.

O=C1CCCN1C1CCN(CCc2ccc(Oc3nc4ncccc4s3)cc2)CC1    5.55

Now take the following compound into account.
Can you look up the measured pIC50 of `O=C1CCCN1C1CCN(CCOc2ccc(Oc3nc4ncccc4s3)cc2)CC1` for me?
5.60

###

Target: Voltage-gated inwardly rectifying potassium channel KCNH2 (Homo sapiens, UniProt Q12809)
Test: Inhibition of human ERG by patch clamp assay
pIC50: −log10 of the molar value.
READOUT_TYPE: pIC50

Reference set, count: 2
CC(=O)N1CC2CC1CN2Cc1ccc(Oc2nc3ncccc3s2)cc1 (stereo not drawn)    < 5.00
O=C1CCCN1C1CCN(Cc2ccc(Oc3nc4ncccc4s3)cc2)CC1    < 5.00

Now take the following compound into account.
Can you look up the measured pIC50 of `NC(=O)C1CCN(Cc2ccc(Oc3nc4ncccc4s3)cc2)CC1` for me?
< 5.00

Data provenance: ChEMBL document CHEMBL2203039
